Recorded EC50 for the following binders
biological target: Staphylococcus aureus alpha toxin (Staphylococcus aureus, UniProt P09616)
Sequence (P09616 27-319 limits assumed): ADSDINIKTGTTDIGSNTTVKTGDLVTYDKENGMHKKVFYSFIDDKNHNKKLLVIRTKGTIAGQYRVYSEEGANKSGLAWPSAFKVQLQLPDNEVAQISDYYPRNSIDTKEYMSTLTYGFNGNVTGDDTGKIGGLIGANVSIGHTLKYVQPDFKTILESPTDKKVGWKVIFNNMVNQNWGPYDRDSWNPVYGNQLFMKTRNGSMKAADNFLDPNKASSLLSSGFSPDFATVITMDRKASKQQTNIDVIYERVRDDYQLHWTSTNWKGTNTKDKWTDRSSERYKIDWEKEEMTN

Binder | Unit abbrev | EC50
F6-Fc fusion proteins binding with antigen (Fc fusion) QVQLVESGGGLAQPGGSLRLSCEASGSTLDSYTVAWFRQAPGKEREGVSCASRSGASTNYANSVKGRFTISRDNAKNTVYLQMNSLKPEDTGVYYCAAYRNFGNFCVMGRYEYDEWGQGTQVTVSSEPKSSDKTHTCPPCPAPELLGGPSVFLFPPKPKDTLYITREPEVTCVVVDVSHEDPEVKFNWYVDGVEVHNAKTKPREEQYNSTYRVVSVLTVLHQDWLNGKEYKCKVSNKALPAPIEKTISKAKGQPREPQVYTLPPSREEMTKNQVSLTCLVKGFYPSDIAVEWESNGQPENNYKTTPPVLDSDGSFFLYSKLTVDKSRWQQGNVFSCSVMHEALHNHYTQKSLSLSPGK | ng/mL | 3
huA3-Fc fusion proteins binding with antigen (Fc fusion) QVQLVESGGGLVQPGGSLRLSCAASGFTFSRHGMTWVRQAPGKGLEYVGEINIPGDDVDYDISVKGRFTISRDNAKNTLYLQMNSLRAEDTAVYYCARAGENMRLVTRGQGTLVTVSSEPKSSDKTHTCPPCPAPELLGGPSVFLFPPKPKDTLYITREPEVTCVVVDVSHEDPEVKFNWYVDGVEVHNAKTKPREEQYNSTYRVVSVLTVLHQDWLNGKEYKCKVSNKALPAPIEKTISKAKGQPREPQVYTLPPSREEMTKNQVSLTCLVKGFYPSDIAVEWESNGQPENNYKTTPPVLDSDGSFFLYSKLTVDKSRWQQGNVFSCSVMHEALHNHYTQKSLSLSPGK | ng/mL | 5.97
